- STUDY SYSTEM: human ERK-2 (Mitogen Activated Kinase 1) (Homo sapiens (Human), UniProt P28482)
- Sequence (P28482 8-360): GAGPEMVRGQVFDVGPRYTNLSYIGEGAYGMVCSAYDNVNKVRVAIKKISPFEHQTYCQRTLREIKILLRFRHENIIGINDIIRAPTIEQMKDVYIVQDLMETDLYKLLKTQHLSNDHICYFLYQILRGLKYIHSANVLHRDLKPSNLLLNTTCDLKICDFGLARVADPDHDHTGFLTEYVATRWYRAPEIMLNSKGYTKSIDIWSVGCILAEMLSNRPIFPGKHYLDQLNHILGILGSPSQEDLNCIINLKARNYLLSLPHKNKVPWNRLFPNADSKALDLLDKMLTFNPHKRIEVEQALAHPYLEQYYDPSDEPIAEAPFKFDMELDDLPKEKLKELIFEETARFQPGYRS
- PROCEDURE SUMMARY: ERK-2 Enzymatic Assay
- Type: biochemical
- EXPERIMENTAL SETUP: 5 nM ERK-2 enzyme, 25 μM ATP, Omnia peptide S/T17; single assay or mean of multiple assays; read-out: IC50 (ERK-2 Enzymatic Assay), TABLE I
The following molecules are listed with their measured IC50 values.
QUANTITY NAME: IC50 (nM)

molecule="COc1ccc([C@@H](NC(=O)c2ccc3cnc(NC4CCOCC4)nc3c2)[C@@H]2CCCN2)cc1F (stereo in doubt)" quantity_name=IC50 test_value=8.2
molecule="O=C(N[C@H](c1ccc(Cl)c(F)c1)[C@@H]1CCCN1)c1ccc2cnc(NC3CCOCC3)nc2c1 (stereo in doubt)" quantity_name=IC50 test_value=2.3
molecule="CC(C)Nc1ncc2ccc(C(=O)N[C@H](c3ccc(C(F)(F)F)c(F)c3)[C@@H]3CCCN3)cc2n1 (stereo in doubt)" quantity_name=IC50 test_value=2.3
molecule="COc1ccc([C@@H](NC(=O)c2cc(F)c3cnc(NC4CCOCC4)nc3c2)[C@@H]2CCCN2)cc1F (stereo in doubt)" quantity_name=IC50 test_value=9
molecule="C[C@@H](CO)Nc1ncc2ccc(C(=O)NC(c3ccc(Cl)c(F)c3)c3ccn(C)n3)cc2n1 (stereo partly shown)" quantity_name=IC50 test_value=5
molecule=CCn1ccc([C@@H](NC(=O)c2ccc3cnc(NC4CCOCC4)nc3c2)c2ccc(Cl)c(F)c2)n1 quantity_name=IC50 test_value=2.4
molecule="O=C(N[C@H](c1ccc(C(F)(F)F)c(F)c1)[C@@H]1CCCN1)c1ccc2cnc(NC3CCOCC3)nc2c1 (stereo in doubt)" quantity_name=IC50 test_value=1.8
